# pKi values compiled below
# studySystem: Prothrombin (Homo sapiens)
Kindly note that pKi refers to -log10 of the concentration in mol/L and answer with the value alone.

Below are worked cases with known answers.
{"molecule": "FC(F)(CNc1nccc2oc(Cc3ccccc3-n3cnnn3)nc12)C1CCCCN1 (stereo not given)", "measuredResult": 8.92}
{"molecule": "FC(F)(CNc1cccc2oc(NCc3cccc(Cl)c3)nc12)c1ccccn1", "measuredResult": 6.82}
{"molecule": "Clc1ccc(-n2cncn2)c(Cc2nc3c(NCCC4CCCCN4)nccc3o2)c1 (stereo not given)", "measuredResult": 10.40}
{"molecule": "Cc1cc2oc(Cc3ccccc3-n3cncn3)nc2c(NCC(F)(F)c2cccc[n+]2[O-])n1", "measuredResult": 8.82}

Now consider the entry below.
Quick one: pKi for [O-][n+]1ccccc1C(F)(F)CNc1nccc2oc(Cc3ccccc3N3CNC=N3)nc12 ?
8.03

---

Record set of Ki for target or system Coagulation factor X (Homo sapiens, UniProt P00742).
Express it in µM; write the number only.

{"compound": "[O-][n+]1ccccc1C(F)(F)CNc1nccc2oc(Cc3ccccc3-n3cnnn3)nc12", "readoutLabel": "Ki", "measuredResult": 2.7}
{"compound": "FC(F)(CNc1nccc2oc(Cc3ccccc3-n3cncn3)nc12)C1CCCCN1 (centres undefined)", "readoutLabel": "Ki", "measuredResult": 0.0505}
{"compound": "[O-][n+]1ccccc1C(F)(F)CNc1nccc2oc(Cc3ccccc3N3CNC=N3)nc12", "readoutLabel": "Ki", "measuredResult": 14}

# get_value(readout='Ki', item= Cc1cc2oc(Cc3cccc(Cl)c3)nc2c(NCCC2CCCCN2)n1 (centres undefined) )
0.4

---

Record: pKi reported on Tissue-type plasminogen activator (Homo sapiens).
Sequence (P00750 whole entry): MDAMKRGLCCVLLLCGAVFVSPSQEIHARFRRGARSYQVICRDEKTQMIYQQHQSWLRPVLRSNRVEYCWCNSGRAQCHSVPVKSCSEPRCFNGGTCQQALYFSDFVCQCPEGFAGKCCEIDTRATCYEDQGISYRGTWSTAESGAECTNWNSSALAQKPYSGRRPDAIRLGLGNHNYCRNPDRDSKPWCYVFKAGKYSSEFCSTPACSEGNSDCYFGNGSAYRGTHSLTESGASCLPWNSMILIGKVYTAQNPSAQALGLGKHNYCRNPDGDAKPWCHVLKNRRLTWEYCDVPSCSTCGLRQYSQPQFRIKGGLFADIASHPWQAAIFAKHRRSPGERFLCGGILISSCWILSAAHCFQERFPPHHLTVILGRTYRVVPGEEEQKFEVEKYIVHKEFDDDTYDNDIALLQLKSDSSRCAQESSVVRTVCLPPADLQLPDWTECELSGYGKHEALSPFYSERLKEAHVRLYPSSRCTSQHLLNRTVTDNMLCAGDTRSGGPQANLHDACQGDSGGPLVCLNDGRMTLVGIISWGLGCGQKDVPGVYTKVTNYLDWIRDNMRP
Hey, just a heads up that pKi is the negative log base 10 of the concentration in molar.

Reference set (4 entries):
{"compound": "Clc1ccc(-n2cncn2)c(Cc2nc3c(NCCC4CCCCN4Cc4ccccc4)nccc3o2)c1 (stereo not given)", "measuredResult": 7.00}
{"compound": "FC(F)(CNc1nccc2oc(Cc3cccc(Cl)c3)nc12)C1CCCCN1 (stereo not given)", "measuredResult": 5.54}
{"compound": "O=C(O)CN1CCCCC1CCNc1nccc2oc(Cc3cc(Cl)ccc3-n3cncn3)nc12 (stereo not given)", "measuredResult": 6.96}
{"compound": "Clc1cccc(Cc2nc3c(NCCC4CCCCN4)nccc3o2)c1 (stereo in doubt; 25)", "measuredResult": 5.68}

Look up pKi: Clc1ccc(-n2cncn2)c(Cc2nc3c(NCCC4CCCCN4)nccc3o2)c1 (stereo not given)
6.85

Query CCOC(=O)CN1CCCCC1CCNc1nccc2oc(Cc3cc(Cl)ccc3-n3cncn3)nc12 (stereo not given) next
7.17

Repeat for the following compound: FC(F)(CNc1nccc2oc(Cc3ccccc3-n3cnnn3)nc12)C1CCCCN1 (stereo not given)
5.85

// next record FC(F)(CNc1nccc2oc(Cc3ccccc3-n3cncn3)nc12)C1CCCCN1 (stereo not given)
6.08

Moving on to the next compound: c1ccc(-n2cnnn2)c(Cc2nc3c(NCCC4CCCCN4)nccc3o2)c1 (stereo not given)
5.70

Note, next up: FC(F)(CNc1nccc2oc(Cc3cc(Cl)ccc3-n3cncn3)nc12)C1CCCCN1 (stereo not given)
6.62

---

This section lists pKi readings for Prothrombin (Homo sapiens).
Please treat pKi as minus the base-10 logarithm of the molar concentration.

{"compound": "c1ccc(-n2cnnn2)c(Cc2nc3c(NCCC4CCCCN4)nccc3o2)c1 (stereo not drawn)", "measuredResult": 8.77}
{"compound": "FC(F)(CNc1cccc2oc(Cc3cc(Cl)ccc3Cl)nc12)c1ccccn1", "measuredResult": 8.47}
{"compound": "FC(F)(CNc1cccc2oc(Cc3cc(Cl)ccc3-n3cncn3)nc12)c1ccccn1", "measuredResult": 10.10}
{"compound": "Clc1cccc(Cc2nc3c(NCCC4CCCCN4)nccc3o2)c1 (stereo in doubt; 25)", "measuredResult": 8.77}
{"compound": "FC(F)(CNc1cccc2oc(Cc3cccc(Cl)c3)nc12)c1ccccn1", "measuredResult": 7.60}

Query (compound): OCCN1CCCCC1CCNc1nccc2oc(Cc3cc(Cl)ccc3-n3cncn3)nc12 (stereo not drawn) ; field requested: pKi
9.60

Please do the same for FC(F)(CNc1nccc2oc(Cc3ccccc3-n3cncn3)nc12)c1ccccn1 as well.
7.80

Moving on to the next compound: FC(F)(CNc1cccc2oc(Cc3ccccc3-n3cnnn3)nc12)c1ccccn1
8.68

Now give it for FC(F)CN1CCCCC1CCNc1nccc2oc(Cc3cc(Cl)ccc3-n3cncn3)nc12 (stereo not drawn) too.
9.28

Another compound: Cc1cc2oc(Cc3cccc(Cl)c3)nc2c(NCC(F)(F)c2cccc[n+]2[O-])n1
8.64

Do the same for [O-][n+]1ccccc1C(F)(F)CNc1nccc2oc(Cc3ccccc3-n3cnnn3)nc12 please
8.70

Another compound to check: Cc1cc2oc(Cc3cccc(Cl)c3)nc2c(NCC(F)(F)c2ccccn2)n1
8.11

Can you check Clc1cccc(Cc2nc3c(NCCC4CCCCN4)nccc3o2)c1 (stereo in doubt; 26) next?
7.00

---

# Species on record: Homo sapiens
# assayName: Concentration required to double the activated partial thromboplastin time (2x APTT) in human plasma
# Format: functional, cell-free
readoutLabel: Concentration

Please review the entries below; each comes with its answer.
{"smiles": "[O-][n+]1ccccc1C(F)(F)CNc1nccc2oc(Cc3cccc(Cl)c3)nc12", "Concentration": "> 8.2 µM"}
{"smiles": "Cc1cc2oc(Cc3cccc(Cl)c3)nc2c(NCC(F)(F)c2ccccn2)n1", "Concentration": "> 8.2 µM"}

# ---- query compound ----
Could you tell me which Concentration is on file for FC(F)(CNc1cccc2oc(Cc3cc(Cl)ccc3Cl)nc12)c1ccccn1 ?
> 8.2 µM

---

# studySystem: Coagulation factor X (Homo sapiens, UniProt P00742)
# Sequence (P00742 41-179 limits assumed): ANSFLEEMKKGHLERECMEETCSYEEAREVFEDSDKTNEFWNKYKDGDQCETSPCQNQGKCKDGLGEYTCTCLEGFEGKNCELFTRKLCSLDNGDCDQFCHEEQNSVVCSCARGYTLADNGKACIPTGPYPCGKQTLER
# Sequence (P00742 235-488 limits assumed): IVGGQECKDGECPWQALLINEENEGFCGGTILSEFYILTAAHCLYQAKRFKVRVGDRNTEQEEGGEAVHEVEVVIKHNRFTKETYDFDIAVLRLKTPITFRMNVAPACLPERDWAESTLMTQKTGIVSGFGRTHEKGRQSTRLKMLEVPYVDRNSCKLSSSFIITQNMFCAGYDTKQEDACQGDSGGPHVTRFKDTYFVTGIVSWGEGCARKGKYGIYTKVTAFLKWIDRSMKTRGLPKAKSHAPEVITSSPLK
readoutLabel: pKi
Schema: pKi number; meaning minus log10 of the concentration expressed in molar units.

{"molecule": "Cc1cc2oc(Cc3cc(Cl)ccc3-n3cncn3)nc2c(NCC(F)(F)c2ccccn2)n1", "readoutLabel": "pKi", "measuredResult": 6.12}
{"molecule": "Cc1cc2oc(Cc3ccccc3-n3cncn3)nc2c(NCC(F)(F)c2cccc[n+]2[O-])n1", "readoutLabel": "pKi", "measuredResult": 5.14}
{"molecule": "Cc1cc2oc(Cc3cccc(Cl)c3)nc2c(NCC(F)(F)c2cccc[n+]2[O-])n1", "readoutLabel": "pKi", "measuredResult": 5.22}

Moving on to the next molecule.
Recorded pKi for Clc1cccc(Cc2nc3c(NCCC4CCCCN4)nccc3o2)c1 (stereo in doubt; 25) , please?
7.92
